The molecules listed here are annotated with their composite z-score.
- experiment summary: binders of probe aFSTL3 on microarray, primary screen, stem cell growth factor project, biochemical, small-molecule microarray, fluorescence 635/667 (AID 1064);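 note: measures binding of the biotinylated anti-FSTL3 antibody to printed compounds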
- condition set: higher = more signal
attribute measured: composite z-score

[[record]]
test_smiles = "O=C1O[C@@H](c2ccccc2)[C@@H](c2ccccc2)N2[C@@H](c3ccc(O)cc3)[C@]3(C(=O)Nc4ccc(C#CC5=CCCCC5)cc43)[C@@H](C(=O)N3CCCCCCC3)[C@H]12"
observed_value = 2.95

[[record]]
test_smiles = "C=CCOC(=O)[C@@H]1[C@H]2C(=O)O[C@H](c3ccccc3)[C@H](c3ccccc3)N2[C@H](c2ccc(OCCOC(=O)[C@H]3C[C@H]4C(=O)NCC(=O)N4[C@H]3c3ccc(O)cc3)cc2)[C@@]12C(=O)Nc1ccc(I)cc12"
observed_value = -0.223

[[record]]
test_smiles = "CC(C)=CCN(C(=O)C#Cc1ccccc1)[C@H](CO)c1ccccc1"
observed_value = -0.591

[[record]]
test_smiles = "Cc1ccc(S[C@]2(C(=O)NC3CC3)CC(=O)N(Cc3cc(C(F)(F)F)cc(C(F)(F)F)c3)[C@@H]2c2ccc(CO)cc2I)cc1"
observed_value = 0.385

[[record]]
test_smiles = "CCOC(=O)C[C@H]1[C@H](OC(=O)Cc2ccc3c(c2)OCO3)[C@@H](NC(=O)c2ccccc2)c2cc(OCCCO)ccc2N1C(=O)Cc1ccc(OC)cc1"
observed_value = -0.483

[[record]]
test_smiles = "CC(C)CNC(=O)[C@@H]1c2ccccc2C(=O)N(C(C)C)[C@H]1c1ccc(CO)cc1"
observed_value = 0.172

